ASSAY_SYSTEM: T1, mouse tissue factor pathway inhibitor (TFPI) (mouse, UniProt O54819 29-289, limits assumed)
T1 construct: bought; also called mTFPI; murine TFPI
T1 sequence (looked up): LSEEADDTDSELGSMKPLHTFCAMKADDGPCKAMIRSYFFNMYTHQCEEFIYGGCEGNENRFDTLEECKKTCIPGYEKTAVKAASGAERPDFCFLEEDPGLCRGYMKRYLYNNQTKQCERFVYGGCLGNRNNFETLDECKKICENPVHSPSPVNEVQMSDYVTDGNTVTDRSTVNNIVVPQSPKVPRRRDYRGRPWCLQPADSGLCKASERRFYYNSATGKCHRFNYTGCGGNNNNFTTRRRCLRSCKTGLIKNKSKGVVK
METHOD_NOTES: competitive ELISA
OBSERVED_PROPERTY: variant/HC_D62R (ratio)
Answers are plain numbers, in ratio.

Some binders with known variant/HC_D62R results, for comparison:
4B7 HC D62S+H107M+Y112D/LC S32R+D33F+N35I (Fab, V domains shown) VH: QVQLQQSGPGLVKPSQTLSLTCAISGDSVSSNSAAWSWIRQSPGRGLEWLGIIYKRSKWYNSYAVSVKSRITINPDTSKNQFSLQLNSVTPEDTAVYYCARWHSDKMWGFDDWGQGTLVTVSS VL: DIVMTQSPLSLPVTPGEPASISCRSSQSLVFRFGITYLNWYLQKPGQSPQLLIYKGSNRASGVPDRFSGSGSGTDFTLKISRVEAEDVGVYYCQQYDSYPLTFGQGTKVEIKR: 31.7
4B7 HC N32D+D62R+H107M+Y112D/LC F31I+S32R+D33F+N35T (Fab, V domains shown) VH: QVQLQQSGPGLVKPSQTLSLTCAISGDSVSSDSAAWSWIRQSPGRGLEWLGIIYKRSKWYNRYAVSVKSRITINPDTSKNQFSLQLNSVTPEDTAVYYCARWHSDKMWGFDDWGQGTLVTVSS VL: DIVMTQSPLSLPVTPGEPASISCRSSQSLVIRFGTTYLNWYLQKPGQSPQLLIYKGSNRASGVPDRFSGSGSGTDFTLKISRVEAEDVGVYYCQQYDSYPLTFGQGTKVEIKR: 19.7
B18.5 (4B7 HC N32D+D62Q+Y112D/LC F31I+D33F+N35I) (Fab, V domains shown) VH: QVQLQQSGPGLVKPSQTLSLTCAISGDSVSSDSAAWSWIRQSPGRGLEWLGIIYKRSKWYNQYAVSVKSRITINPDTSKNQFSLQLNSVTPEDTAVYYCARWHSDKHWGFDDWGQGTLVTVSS VL: DIVMTQSPLSLPVTPGEPASISCRSSQSLVISFGITYLNWYLQKPGQSPQLLIYKGSNRASGVPDRFSGSGSGTDFTLKISRVEAEDVGVYYCQQYDSYPLTFGQGTKVEIKR: 14
4B7 HC N32D+D62K+Y112D/LC S32R+D33F+N35I+D97T (Fab, V domains shown) VH: QVQLQQSGPGLVKPSQTLSLTCAISGDSVSSDSAAWSWIRQSPGRGLEWLGIIYKRSKWYNKYAVSVKSRITINPDTSKNQFSLQLNSVTPEDTAVYYCARWHSDKHWGFDDWGQGTLVTVSS VL: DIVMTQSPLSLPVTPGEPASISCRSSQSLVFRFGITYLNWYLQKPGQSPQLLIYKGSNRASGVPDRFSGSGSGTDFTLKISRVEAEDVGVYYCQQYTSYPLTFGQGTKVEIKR: 38.8

4B7 HC D62R+H107M+Y112D/LC D33F+N35I (Fab, V domains shown) VH: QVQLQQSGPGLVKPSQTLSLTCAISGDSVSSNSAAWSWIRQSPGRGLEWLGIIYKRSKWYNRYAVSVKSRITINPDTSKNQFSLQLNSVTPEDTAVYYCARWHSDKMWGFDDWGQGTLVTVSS VL: DIVMTQSPLSLPVTPGEPASISCRSSQSLVFSFGITYLNWYLQKPGQSPQLLIYKGSNRASGVPDRFSGSGSGTDFTLKISRVEAEDVGVYYCQQYDSYPLTFGQGTKVEIKR has a reported variant/HC_D62R of 36.6
